Test system: UT-SCC-24B
procedure-text: drug sensitivity score (DSS); higher = more sensitive; extreme values may be limits of the assay
run-parameters: culture condition: plastic 2D (no matrix); treatment time: 3 days
// reported drug sensitivity score per item
recorded-metric: drug sensitivity score

[
  {
    "molecule": "C=CC(=O)Nc1cc2c(Nc3ccc(F)c(Cl)c3)ncnc2cc1OCCCN1CCOCC1 [Canertinib]",
    "assay-target": "UT-SCC-24B",
    "reported-measurement": "26.2 DSS"
  },
  {
    "molecule": "CN(C)C/C=C/C(=O)Nc1cc2c(Nc3ccc(F)c(Cl)c3)ncnc2cc1O[C@H]1CCOC1 [Afatinib]",
    "assay-target": "UT-SCC-24B",
    "reported-measurement": "16.1 DSS"
  },
  {
    "molecule": "Cn1cnc2c(F)c(Nc3ccc(Br)cc3F)c(C(=O)NOCCO)cc21 [Binimetinib]",
    "assay-target": "UT-SCC-24B",
    "reported-measurement": "9.3 DSS"
  },
  {
    "molecule": "CO[C@H]1C[C@@H]2CC[C@@H](C)[C@@](O)(O2)C(=O)C(=O)N2CCCC[C@H]2C(=O)O[C@H]([C@H](C)C[C@@H]2CC[C@@H](OP(C)(C)=O)[C@H](OC)C2)CC(=O)[C@H](C)/C=C(\\C)[C@@H](O)[C@@H](OC)C(=O)[C@H](C)C[C@H](C)/C=C/C=C/C=C/1C [Ridaforolimus]",
    "assay-target": "UT-SCC-24B",
    "reported-measurement": "5.37 DSS"
  },
  {
    "molecule": "C#Cc1cccc(Nc2ncnc3cc(OCCOC)c(OCCOC)cc23)c1 [Erlotinib]",
    "assay-target": "UT-SCC-24B",
    "reported-measurement": "15.2 DSS"
  },
  {
    "molecule": "CO[C@H]1C[C@@H]2CC[C@@H](C)[C@@](O)(O2)C(=O)C(=O)N2CCCC[C@H]2C(=O)O[C@H]([C@H](C)C[C@@H]2CC[C@@H](OCCO)[C@H](OC)C2)CC(=O)[C@H](C)/C=C(\\C)[C@@H](O)[C@@H](OC)C(=O)[C@H](C)C[C@H](C)/C=C/C=C/C=C/1C [Everolimus]",
    "assay-target": "UT-SCC-24B",
    "reported-measurement": "2.43 DSS"
  },
  {
    "molecule": "Cc1c(CN2CCN(C(=O)[C@H](C)O)CC2)sc2c(N3CCOCC3)nc(-c3cnc(N)nc3)nc12 [Apitolisib]",
    "assay-target": "UT-SCC-24B",
    "reported-measurement": "11.1 DSS"
  },
  {
    "molecule": "CC(=O)Nc1cccc(-n2c(=O)n(C3CC3)c(=O)c3c(Nc4ccc(I)cc4F)n(C)c(=O)c(C)c32)c1 [Trametinib]",
    "assay-target": "UT-SCC-24B",
    "reported-measurement": "13.8 DSS"
  },
  {
    "molecule": "CO[C@H]1C[C@@H]2CC[C@@H](C)[C@@](O)(O2)C(=O)C(=O)N2CCCC[C@H]2C(=O)O[C@H]([C@H](C)C[C@@H]2CC[C@@H](O)[C@H](OC)C2)CC(=O)[C@H](C)/C=C(\\C)[C@@H](O)[C@@H](OC)C(=O)[C@H](C)C[C@H](C)/C=C/C=C/C=C/1C [Sirolimus]",
    "assay-target": "UT-SCC-24B",
    "reported-measurement": "16.8 DSS"
  },
  {
    "molecule": "Cn1cnc2c(F)c(Nc3ccc(Br)cc3Cl)c(C(=O)NOCCO)cc21 [Selumetinib]",
    "assay-target": "UT-SCC-24B",
    "reported-measurement": "21 DSS"
  },
  {
    "molecule": "Cn1c(=O)c(F)c(Nc2ccc(I)cc2F)c2c(=O)n(C[C@@H](O)CO)cnc21 [TAK-733]",
    "assay-target": "UT-SCC-24B",
    "reported-measurement": "13 DSS"
  },
  {
    "molecule": "COc1ccc(-c2cc3c(C)nc(N)nc3n([C@H]3CC[C@H](OCCO)CC3)c2=O)cn1",
    "assay-target": "UT-SCC-24B",
    "reported-measurement": "16.6 DSS"
  }
]
